system: HEK-293T; test: Multiplex assay against HEK293T; type: toxicity, cell-based; details: human, 24 h, 10 µM, compound concentration 10 uM, replicate 2
Label FALSE if Population Mitochondria Different-Phenotype (%) falls below 60%; label TRUE in every other case.

Worked set:
[[record]]
compound = "O=C(c1cc2c(cc1F)OC(c1ccc(F)cc1)(c1ccc(Cl)cc1Cl)O2)N1CCOCC1 (stereo not drawn)"
answer_label = "TRUE"

[[record]]
compound = "CC(C)NC(=O)N1CC[C@H](NC2=Nc3cc(F)ccc3N(CC(F)F)c3ccc(Cl)cc32)C1"
answer_label = "TRUE"

[[record]]
compound = "O=c1[nH]c2ccccc2n1C1CCN(Cc2ccc(-c3[nH]c4cc5ncnc5cc4nc3-c3ccccc3)cc2)CC1"
answer_label = "TRUE"

[[record]]
compound = "CCOC(=O)Nc1cc(-c2ccc(C)c(NS(C)(=O)=O)c2)nn2c(C)nnc12"
answer_label = "FALSE"

[[record]]
compound = "COc1cc(Nc2nccc(-c3cnn4nc(OC)ccc34)n2)cc(C(F)(F)F)c1"
answer_label = "FALSE"


Q. Hi team, for Cc1cccc(CN2CCN(C(c3ccccc3)c3ccc(Cl)cc3)CC2)c1.Cl.Cl (stereo not drawn) , is the recorded Population Mitochondria Different-Phenotype (%) at or above 60%?
A. TRUE

Q. I'd appreciate it if you could say whether COc1ccc(-c2ccc3ncc4c(c3c2)n(-c2ccc(N3CCNCC3)c(C(F)(F)F)c2)c(=O)n4C)cn1.O=C(O)/C=C\C(=O)O [BGT-226] has Population Mitochondria Different-Phenotype (%) at least equal to 60%.
A. FALSE

Q. Is reported Population Mitochondria Different-Phenotype (%) greater than or equal to 60% here: COc1ccccc1CN[C@H]1C2CCN(CC2)[C@H]1C(c1ccccc1)c1ccccc1 [CP-96345]
A. TRUE
